tested on: SK-MEL-28 melanoma; experiment: NCI tumour cell line growth inhibition, 48 h
test-readout: TGI

The following compounds have reported results that may help.
>>> assay_result("CC(=O)OCC12C(OC(C)=O)C(=O)C3C(OC(C)=O)C14OC3(C)COC(=O)c1cccnc1C(C)C(C)C(=O)OC(C(OC(C)=O)C2OC(C)=O)C4(C)O (centres undefined)")
"> 100 µM"
>>> assay_result("Cc1nc2c(nc1C)C(=O)C1=C(C2=O)C2C=CC1CC2")
"35.6 µM"
>>> assay_result("CCN1CCN(Cc2ccc(NC(=O)c3nc4ccc5[nH]ncc5c4c4c3CCCC4)cc2C(F)(F)F)CC1")
"1.65 µM"

Per the record, COc1nc2ncc([C@@H](O)[C@H](O)CO)nc2c(=O)n1C has TGI of > 100 µM

Per the record, CN(C)CCNC(=O)c1cccc(NC(=O)c2ccccc2)c1[N+](=O)[O-] has TGI of > 100 µM

Per the record, COc1ccc(CCCNC(=O)Cc2ccccc2CO)cc1OC has TGI of > 100 µM

Per the record, N#CC(C#N)N=Nc1ccc(-c2nc3ccccc3s2)cc1 has TGI of 35.9 µM

Per the record, Cc1c(Cl)ccc2c1NC(=O)C2(O)CC(=O)c1cccc2ccccc12 (centres undefined) has TGI of > 100 µM

Per the record, Nc1ncnc2c1ncn2C1OC(CO)C2OC21 (centres undefined) has TGI of > 100 µM

----------
test system: SF-295 CNS; assay: NCI tumour cell line growth inhibition, 48 h
test-readout: TGI (µM)
Your answer is read as µM, so omit the unit and give the number.

The following compounds have reported results that may help.
>>> assay_result("COC(=O)[C@]1(C)CCC[C@]2(C)[C@H]3CC[C@]4(C(C)C)OO[C@@H](O4)[C@]34O[C@@H]4C[C@H]21")
8.77
>>> assay_result("N=C(N)c1ccc(-c2ccc(-c3ccc(F)cc3)s2)nc1")
3.63
>>> assay_result("COc1ccc(N2C(=O)C3c4[nH]c5c(C)cccc5c4C4CCC(c5ccccc5)CC4C3C2=O)cc1 (stereo not given)")
40.2

Now for another entry.
Record for O=C(c1cccs1)c1c(C(F)(F)F)n([O-])c2ccc(Cl)cc2[n+]1=O under target or system SF-295 CNS: TGI reported as 0.703

----------
tested on: T-47D breast; assay: NCI tumour cell line growth inhibition, 48 h
test-readout: TGI (µM)
Your answer is read as µM, so omit the unit and give the number.

The following molecules have reported results that may help.
>>> assay_result("CC1CN=C(c2cccc(-c3ccc(-c4ccccc4)o3)c2)N1 (centres undefined)")
5.05
>>> assay_result("C/C(=C\\COc1ccc2ccc(=O)oc2c1)C1=CC(=O)C(C)(C)O1")
30.6
>>> assay_result("O=C(Nc1ccc(-n2ccc3c(NC(=O)c4ccccc4)ncnc32)cc1)c1ccc(Cl)c(C(F)(F)F)c1")
13.8

Record for Cc1ccccc1N1C(N)=C(C#N)C(C#N)(C#N)C1c1ccccc1 (centres undefined) under target or system T-47D breast: TGI reported as 31

Record for CC(C)=C[C@@H]1C[C@H](C)[C@H]2CC[C@H](C)c3c(O)c(OC4OCC(O)C(O)C4O)c(C)c1c32 (some centres undefined) under target or system T-47D breast: TGI reported as 28.1

Record for COC(=O)C(C)(C)NC(=O)C(Cc1ccccc1)Nc1ncnc2c1ncn2-c1ccc(OC)cc1 (centres undefined) under target or system T-47D breast: TGI reported as 58.2

Record for C=C(C)C12OC3(c4ccccc4)OC1C1C4OC4(CO)C(O)C4(O)C(=O)C(C)=CC4C1(O3)C(C)C2OC(=O)/C=C/C=C/c1ccccc1 (centres undefined) under target or system T-47D breast: TGI reported as 4.84

----------
tested on: UACC-257 melanoma; test: NCI tumour cell line growth inhibition, 48 h
test-readout: TGI

Per the record, CCCCc1ccc(N2C(=O)c3cc([N+](=O)[O-])cnc3S2(=O)=O)cc1 has TGI of > 100 µM

Per the record, CC(C)c1nc(Cl)nc(Cl)c1Cl has TGI of 1.91 µM

Per the record, CC(C)CC(=O)[O-].N.N.N.N.N.[Co+3].[O-][Cl+3]([O-])([O-])[O-] has TGI of > 100 µM

Per the record, CCCCNC(=O)NNC(=O)c1cc(/C=C/c2cccc([N+](=O)[O-])c2)ncn1 has TGI of > 100 µM

Per the record, NC(=O)c1ccc(NCC2=CC(=O)C=CC2=O)cc1 has TGI of 43.1 µM

Per the record, Cc1nc2c(nc1C)C(=O)C1=C(C2=O)C2C=CC1CC2 has TGI of 14.5 µM

Per the record, OC(Cc1ccc2ccccc2n1)(C(F)(F)F)C(F)(F)F has TGI of > 10 µM

Per the record, NC(N)=NS(=O)(=O)c1ccc(NC(=O)c2cccc3c(Nc4ccc(S(=O)(=O)N=C(N)N)cc4)c4ccccc4nc23)cc1 has TGI of > 100 µM

Per the record, CC1(C=O)C(=O)CCC2(C)C3CC(=O)OC3CCC12 (centres undefined) has TGI of > 100 µM

Per the record, CCCCCCCCCCCCCCCCCCNc1nc(=O)n(C2CC(O)C(COP(=O)(O)OCC(COP(=O)(O)OC3C(CO)OC(n4ccc(N)nc4=O)C3O)OCCCCCCCCCCCCCCCCCC)O2)cc1F (centres undefined) has TGI of > 100 µM

Per the record, CC(=O)O[C@H]1C(=O)[C@@]2(C)[C@H]([C@H](OC(=O)C3CCCCC3)[C@]3(O)C[C@H](OC(=O)[C@H](O)[C@@H](NC(=O)OC(C)(C)C)c4ccccc4)C(C)=C1C3(C)C)[C@]1(OC(C)=O)CO[C@@H]1C[C@@H]2O has TGI of > 12.5 µM

Per the record, COc1c(O)ccc(C2=Cc3ccc(O)cc3OC2)c1OC has TGI of > 89.7 µM

Per the record, Cc1ccc(-n2c(=S)[nH]c3ccc(Br)cc3c2=O)cc1 has TGI of > 100 µM

Per the record, CN(C)C(=S)/N=c1\ss/c(=N\C(=S)N(C)C)n1C1CCCCC1 has TGI of > 100 µM

Per the record, CC1(C)CC(/C=C2/OC(=O)c3ccccc32)=C(C(N)=O)C(=O)O1 has TGI of > 100 µM

Per the record, O=C(O)c1ccccc1/C=C1\Cc2ccccc2C1=O has TGI of > 100 µM

Per the record, COc1ccc(-n2cnc3c(NCC(=O)O)ncnc32)cc1 has TGI of > 100 µM

----------
system: SK-MEL-2 melanoma; assay: NCI tumour cell line growth inhibition, 48 h
test-readout: TGI

The following compounds have reported results that may help.
>>> assay_result("COc1ccc(NC(=O)CC(=O)NN2C(=O)/C(=C/c3ccc(N(CCC#N)CCC#N)cc3C)N=C2/C=C\\c2ccccc2)cc1")
"> 100 µM"
>>> assay_result("O=c1oc2ccccc2c(O)c1C(C/C(CCN1CCCC1)=N/O)c1ccccc1 (centres undefined)")
"> 100 µM"
>>> assay_result("O=C(O)C1(Cc2ccccc2)Cc2ccccc2C1")
"> 100 µM"
>>> assay_result("CCCC12Cc3c(OC)ccc(OC)c3CC(Cc3c(OC)ccc(OC)c31)C2=O (centres undefined)")
"> 100 µM"
>>> assay_result("Cc1nc(Nc2ccc(Cl)cc2)sc1C(=O)NNC(=O)C(=O)NN")
"32.6 µM"

Per the record, COc1ccc(OC)c(CCc2cc(OC)ccc2OC)c1 has TGI of > 8.88 µM

Per the record, CS(=O)(=O)c1ccc(NNc2cc(=O)[nH]c(=O)[nH]2)cc1 has TGI of > 100 µM

Per the record, CNCCC/C=C1\c2cc3c(cc2-c2c1c1cc(OC)c(OC)cc1c(=O)n2C)OCO3 has TGI of > 42.4 µM

Per the record, COC(=O)CCC(C)[C@H]1CCC2C3C(C[C@H](OC(C)=O)[C@@]21C)[C@@]1(C)CCC2(C[C@H]1C[C@H]3OC(C)=O)OOC1(CCC(C(C)(C)C)CC1)OO2 (some centres undefined) has TGI of > 100 µM

Per the record, C/C(=N\NC(=O)c1ccccc1N)c1ccccc1O has TGI of > 100 µM

Per the record, O=C(O)c1ccccc1NS(=O)(=O)c1ccc([N+](=O)[O-])cc1 has TGI of > 100 µM

Per the record, Oc1cc(Cn2cnc3c(Cl)nc(Cl)nc32)ccc1C12CC3CC(CC(C3)C1)C2 has TGI of 38 µM

Per the record, N#CCCN(CCC#N)c1ccc(/C=C2\N=C(c3cc([N+](=O)[O-])ccc3Cl)N(S(=O)(=O)c3ccccc3)C2=O)cc1 has TGI of > 100 µM

Per the record, COc1c(O)ccc(C2=Cc3ccc(O)cc3OC2)c1OC has TGI of 68 µM

Per the record, CC(=O)O[C@H](C[C@@H](C)[C@H]1C(=O)[C@H](O)[C@@]2(C)C3CC[C@H]4C(C)(C)[C@@H](OC5OCC(O)C(O)C5O)CC[C@@]45C[C@@]35CC[C@]12C)[C@@H]1OC1(C)C (some centres undefined) has TGI of 29.5 µM

Per the record, O=c1oc2ccccc2c(O)c1/C=N\c1nc(-c2ccc(O)c(O)c2)cs1 has TGI of 7.04 µM

Per the record, Oc1ccc(Cl)cc1-c1cc(-c2ccc(Cl)cc2)n[nH]1 has TGI of 30.1 µM

Per the record, CC(=O)OC(OC(C)=O)c1ncccc1C(=O)OC(C)C has TGI of > 100 µM

Per the record, COc1ccc(CCCNC(=O)Cc2ccccc2CO)cc1OC has TGI of > 100 µM

Per the record, [O-][n+]1c2cc3c(cc2[n+]([O-])c2c(O)cccc21)CN(CCN1CCOCC1)C3 has TGI of 53 µM

Per the record, CN(CCCN(C)Cc1ccc(Cl)c(Cl)c1)CCN1CCCC1 has TGI of 26.4 µM

Per the record, O=C(O)CCC(=O)N1C/C(=C\c2ccccc2)C(=O)/C(=C/c2ccccc2)C1 has TGI of 4 µM

Per the record, COc1cccc(-n2ncc3c(N/N=C/c4cccc(F)c4)ncnc32)c1 has TGI of > 25 µM

Per the record, CCN1CCN(Cc2ccc(NC(=O)c3nc4ccc5[nH]ncc5c4c4c3CCCC4)cc2C(F)(F)F)CC1 has TGI of 1.9 µM

Per the record, CCC(C)C1=NC(C(=O)N/C=C\c2c[nH]c3cc(Br)c(Br)cc23)(C(C)C)NC1=O (centres undefined) has TGI of 26.7 µM

Hello, the source for this data is PubChem BioAssay (NCI), in case you need it.
